experiment: physchem; settings: water
Each record here notes measured solubility.
Measured Property: solubility

• CC[C@H]1[C@@H](O)[C@@H]2[C@H](CC[C@]3(C)[C@@H]([C@H](C)CCC(=O)O)CC[C@@H]23)[C@@]2(C)CC[C@@H](O)C[C@@H]12 = 9 µM
• C[C@H](CCC(=O)O)[C@H]1CC[C@H]2[C@@H]3[C@@H](O)C[C@@H]4C[C@H](O)CC[C@]4(C)[C@H]3CC[C@]12C = 7 µM
• CC[C@H]1[C@@H](O)[C@@H]2[C@H]([C@@H](O)C[C@]3(C)[C@@H]([C@H](C)CCC(=O)O)CC[C@@H]23)[C@@]2(C)CC[C@@H](O)C[C@@H]12 = 150 µM

====

experiment: Stability in bile of fistula Wistar-Han rat model assessed as drug recovery of unmodified compound at 60 umol/kg, iv by HPLC-ES-MS/MS analysis; type: ADME, organism-based; conditions: at 60 µmol/kg, read-out: Drug recovery
Measured Property: dose excreted

• C[C@H](CCC(=O)O)[C@H]1CC[C@H]2[C@@H]3[C@H](O)C[C@@H]4C[C@H](O)CC[C@]4(C)[C@H]3C[C@H](O)[C@]12C = 10%
• CC[C@H]1[C@@H](O)[C@@H]2[C@H]([C@@H](O)C[C@]3(C)[C@@H]([C@H](C)CCC(=O)O)CC[C@@H]23)[C@@]2(C)CC[C@@H](O)C[C@@H]12 = 50%

Where these numbers come from: ChEMBL document CHEMBL4680080
